The reported numbers originate from patent US20260250290A1.

Reported pIC50 values are given for each entry in this list.
- tested-system: full length SGK1 (Homo sapiens, UniProt O00141)
- Construct: 125 μM full length SGK1 (Life Technologies Part #PR7358A); purchased Life Technologies PR7358A
- Sequence (O00141 whole entry): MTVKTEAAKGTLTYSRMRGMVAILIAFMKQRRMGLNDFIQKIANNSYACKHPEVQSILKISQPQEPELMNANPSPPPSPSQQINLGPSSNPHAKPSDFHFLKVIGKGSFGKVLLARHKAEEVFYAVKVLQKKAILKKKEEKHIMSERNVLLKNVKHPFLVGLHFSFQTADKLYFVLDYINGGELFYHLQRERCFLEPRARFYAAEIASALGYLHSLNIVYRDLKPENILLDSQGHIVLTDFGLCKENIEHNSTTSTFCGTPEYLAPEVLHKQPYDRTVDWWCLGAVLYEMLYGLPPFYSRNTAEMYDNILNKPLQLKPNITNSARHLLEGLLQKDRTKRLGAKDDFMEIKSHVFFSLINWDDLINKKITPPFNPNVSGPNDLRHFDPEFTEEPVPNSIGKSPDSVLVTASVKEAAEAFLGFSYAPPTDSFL
- test-name: SGK1 inhibition Assay A (Caliper LabChip electrophoretic separation of fluorescent peptide substrate and phosphorylated product)
- Type: biochemical
- condition-context: Assay A; 20 μM ATP, 40 min incubation; read-out: SGK1 IC50
Structures can show the parent of a compound that is named as a salt.
# pIC50 = -log10(concentration in molar units)

Query: pIC50; subject: CS(=O)(=O)c1ccc(-c2cc(N3CCC[C@@H](NC(=O)c4ccccc4OC(F)F)C3)c3c(N)ncnn23)cc1 [Example 58, TFA] 6.07

What value of pIC50 has been recorded for this entry: CC(=O)N1CC=C(c2cc(N3CCC[C@@H](NC(=O)c4cccc(NCCN5CCCC5)n4)C3)c3c(N)ncnn23)C1 [Example 763] 8.00

For the molecule shown here, Nc1ncnn2c(C3=CCN(C(=O)c4ccno4)C3)cc(N3CCC[C@@H](NC(=O)c4ccc(Cl)s4)C3)c12 [Example 899] , give the reported pIC50. 7.92

Fill blank: measured pIC50 of the molecule CN1CCN(CCOc2cc(Cl)sc2C(=O)N[C@@H]2CCCN(c3cc(-c4ccnc(F)c4)n4ncnc(N)c34)C2)CC1 [Example 167, TFA] is ____. 9.00

Sample COC(=O)C12CC(C(=O)N[C@@H]3CCCN(c4cc(C5=CCN(C(C)=O)C5)n5ncnc(N)c45)C3)(C1)C2 [Example 478] — what was its pIC50? 6.11

Field request: pIC50 | item: CC(=O)c1ccc(-c2cc(N3CCC[C@@H](NC(=O)c4ccc(Cl)s4)C3)c3c(N)ncnn23)cc1 [Example 204, TFA] 8.30

Query (molecule): COC(=O)N1CC=C(c2cc(N3CCC[C@@H](NC(=O)c4sc(C(F)F)cc4N4CC5(COC5)C4)C3)c3c(N)ncnn23)C1 [Example 317] ; field requested: pIC50 7.47
